- experimental_details: Oral administration of hydrocodone prodrugs KC-40 or KC-50 co-dosed with Compound 109 to rats
- condition_description: Sprague Dawley, rat, plasma, po, […], HC Cmax ± sd, Table 11B: hydrocodone values in Table 10 adjusted to provide expected values at a 62 μmol/kg ([…]) dose, rat

compound	Cmax (ng/mL)
COc1ccc2c3c1O[C@H]1C(=O)CC[C@H]4[C@@H](C2)N(C)CC[C@]314 [Hydrocodone, hydrocodone]	12.4

----------
- target_or_system: trypsin (Bos taurus)
- Construct: purchased Sigma-Aldrich T8003; host or cells: bovine pancreas (tissue-derived preparation)
- Sequence (P00760 24-246): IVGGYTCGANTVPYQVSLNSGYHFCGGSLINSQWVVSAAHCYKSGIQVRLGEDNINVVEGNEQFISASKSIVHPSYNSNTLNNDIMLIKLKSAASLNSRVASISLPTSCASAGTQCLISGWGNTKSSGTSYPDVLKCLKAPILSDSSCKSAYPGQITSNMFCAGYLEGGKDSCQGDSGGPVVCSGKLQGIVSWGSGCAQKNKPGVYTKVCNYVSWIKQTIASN
- experimental_details: In vitro trypsin-mediated cleavage of oxycodone prodrugs
- Format: biochemical, bovine
- condition_description: bovine, trypsin from bovine pancreas; 0.761 mM prodrug, Tris pH 8, 37° C.; adjusted to 4815 BAEE U trypsin/mL
value_kind: half-life at 0.761 mM (min)

compound	target_or_system	value_kind	obs_value
COc1ccc2c3c1O[C@H]1C(OC(=O)N4CCCCC4CNC(=O)[C@H](CCCNC(=N)N)NC(=O)CC(=O)O)=CC[C@@]4(O)[C@@H](C2)N(C)CC[C@]314 (stereo partly drawn)	trypsin (Bos taurus)	half-life at 0.761 mM	9.5
COc1ccc2c3c1O[C@H]1C(OC(=O)N4CCCCC4CNC(=O)[C@H](CCCNC(=N)N)NC(=O)CNC(=O)CC(=O)O)=CC[C@@]4(O)[C@@H](C2)N(C)CC[C@]314 (stereo partly drawn)	trypsin (Bos taurus)	half-life at 0.761 mM	2.37
COc1ccc2c3c1O[C@H]1C(OC(=O)N4CCCCC4CNC(=O)[C@H](CCCNC(=N)N)NC(=O)[C@H](C)NC(C)=O)=CC[C@@]4(O)[C@@H](C2)N(C)CC[C@]314 (stereo partly drawn)	trypsin (Bos taurus)	half-life at 0.761 mM	0.0458
